# Test system: IL-6
# measurementProtocol: IL-6 inhibition in LPS-stimulated human peripheral blood mononuclear cells (HTRF)
# Assay type: cell-based
# conditionInfo: Homo sapiens, PBMC; read-out: percent inhibition at 10 μM
# binarize inhibition at 10 µM: threshold 10% inclusive, high side 1, low side -1

# input Is reported inhibition at 10 µM greater than or equal to 10% here: Cn1cc(-c2cc(F)c3[nH]nc(C(=O)NC4CCC(F)(F)CC4)c3c2)cn1
# output 1

# input Does the molecule CN1CCC(Oc2ccc(NC(=O)c3n[nH]c4cc(F)c(-c5cn(C)nc5CO)cc34)cc2)CC1 have recorded inhibition at 10 µM that is 10% or more?
# output -1

# input Given CN1CCN(c2cccc(NC(=O)c3n[nH]c4cc(F)c(-c5cnn(C)c5)cc34)c2)CC1 , state whether its inhibition at 10 µM is at least 10%.
# output 1

# input Entry Cn1cc(-c2cc(F)c3[nH]nc(C(=O)NC4CCN(CC(F)F)CC4)c3c2)cn1 : is its inhibition at 10 µM no less than 10%?
# output 1

# input Check this molecule for inhibition at 10 µM at or above 10%: O=C(Nc1ccc(N2CCCC2)nc1)c1n[nH]c2cc(F)c(-c3cnn(C4CCNCC4)c3)cc12
# output -1

# input Hi team, for Cn1cc(-c2cc3c(C(=O)Nc4ccc5c(c4)CNC5)n[nH]c3cc2F)cn1 , is the recorded inhibition at 10 µM at or above 10%?
# output -1

# input Given Cc1ncc(-c2ccc3[nH]nc(C(=O)N[C@@H](C)C(F)(F)F)c3c2)n1C , state whether its inhibition at 10 µM is at least 10%.
# output 1

# input Reported inhibition at 10 µM at or above 10%? O=C(Nc1ccc(OC(F)F)nc1)c1n[nH]c2ccc(-c3cnn(CCN4CCOCC4)c3)cc12
# output 1

# input Is inhibition at 10 µM for O=C(Nc1ccc(F)cc1)c1n[nH]c2ccc(-c3cnn(C4CC4)c3)cc12 at or above 10%?
# output 1

# input For this molecule, is measured inhibition at 10 µM 10% or higher? CN1CCC(Oc2ccc(NC(=O)c3n[nH]c4cc(F)c(-c5ccn(C)n5)cc34)cc2)CC1
# output 1

# input Is the recorded value of inhibition at 10 µM equal to or greater than 10% for this molecule? O=C(Nc1ccc(OC(F)F)cc1)c1n[nH]c2ccc(-c3cnn(C4CNC4)c3)cc12
# output -1

# input Check this molecule for inhibition at 10 µM at or above 10%: O=C(Nc1ccc(N2CCCC2)nc1)c1n[nH]c2cc(F)c(-c3cnn(C4CC4)c3)cc12
# output -1

# input Determine whether this molecule has inhibition at 10 µM no lower than 10%: Cc1ncc(-c2ccc3[nH]nc(C(=O)N[C@@H](C(C)C)C(F)(F)F)c3c2)n1C
# output 1

# input Decide: inhibition at 10 µM of Cc1ncc(-c2cc(F)c3[nH]nc(C(=O)N[C@@H](C)C(F)(F)F)c3c2)n1C >= 10%?
# output -1

# input Entry O=C(Nc1ccc(OC(F)F)nc1)c1n[nH]c2ccc(-c3cnn(C4CNC4)c3)cc12 : is its inhibition at 10 µM no less than 10%?
# output 1

# input Does inhibition at 10 µM meet or surpass 10% for C[C@H](NC(=O)c1n[nH]c2c(F)cc(-c3cnn(C)c3)cc12)C(F)(F)F ?
# output 1

# input I'd appreciate it if you could say whether Cc1ncc(-c2ccc3[nH]nc(C(=O)N[C@H]4CCN(CC(C)C)C[C@@H]4F)c3c2)n1C has inhibition at 10 µM at least equal to 10%.
# output -1

# input Does inhibition at 10 µM meet or surpass 10% for CC(C)CN1CC[C@H](NC(=O)c2n[nH]c3c(F)cc(-c4cnn(C)c4)cc23)[C@@H](F)C1 ?
# output -1

# input Does O=C(Nc1ccc(N2CCCC2)nc1)c1n[nH]c2ccc(-c3cnn(C4CCNCC4)c3)cc12 have a reported inhibition at 10 µM of at least 10%?
# output -1

# input In plain terms: is recorded inhibition at 10 µM at least 10% for Cc1ncc(-c2ccc3[nH]nc(C(=O)NC4CCN(c5ccc(F)cc5)CC4)c3c2)n1C ?
# output 1

# input # check: inhibition at 10 µM of Cc1cnc(NC(=O)c2n[nH]c3ccc(-c4cnn(C5CCN(C)CC5)c4)cc23)s1 is greater than or equal to 10%
# output 1

# input Entry CN1[C@@H]2CC[C@H]1CC(NC(=O)c1n[nH]c3ccc(-c4cnn(C)c4)cc13)C2 (some centres unmarked) : is its inhibition at 10 µM no less than 10%?
# output -1

# input Check this molecule for inhibition at 10 µM at or above 10%: Cn1cc(-c2cc(F)c3[nH]nc(C(=O)NCCC(F)(F)F)c3c2)cn1
# output 1

# input Record Cc1c(-c2ccc3[nH]nc(C(=O)NC4CCC(F)(F)CC4)c3c2)cnn1C ; criterion: inhibition at 10 µM no lower than 10%. Met?
# output 1

# input Determine whether this molecule has inhibition at 10 µM no lower than 10%: CC[C@H](NC(=O)c1n[nH]c2ccc(-c3cnc(C)n3C)cc12)C(F)(F)F
# output 1

# input // inclusive: inhibition at 10 µM at least 10%? input: Cn1cc(-c2cc(Cl)c3[nH]nc(C(=O)NC4CCN(CC(C)(C)F)CC4)c3c2)cn1
# output -1

# input Evaluate O=C(Nc1ccc(N2CCCC2)nc1)c1n[nH]c2ccc(-c3cnn(C4CC4)c3)cc12 : inhibition at 10 µM at minimum 10%?
# output 1

# input Check if inhibition at 10 µM >= 10% (inclusive). Item: Cc1nn(C)cc1-c1ccc2[nH]nc(C(=O)NC3CCC(F)(F)CC3)c2c1
# output 1

###

Field: EC50. Provide a value for each of the molecules that follow.
# Tested on: Wnt activity (Sp5-Luc reporter in SW480 cells)
# measurementProtocol: Screening assay for Wnt activity: Sp5-Luc reporter gene assay in SW480 colon carcinoma cells
# Format: cell-based, human
# conditionInfo: Homo sapiens, 36 to 48 hours

Cc1ncc(-c2ccc3[nH]nc(C(=O)N[C@@H](C)C(F)(F)F)c3c2)n1C has a reported EC50 of > 10 µM

EC50 in this record for Cc1nc(-c2ccc3[nH]nc(C(=O)Nc4ccc(OC5CCN(C)CC5)cc4)c3c2)cs1 : > 10 µM

So for Cc1noc(C)c1-c1ccc2[nH]nc(C(=O)NC3CCN(CC(C)(C)F)CC3)c2c1 , the logged EC50 turned out to be > 10 µM

###

Assign EC50 to each entry below.
# System: Wnt activity (Sp5-Luc reporter in SW480 cells)
# measurementProtocol: Screening assay for Wnt activity: Sp5-Luc reporter gene assay in SW480 colon carcinoma cells
# Type: cell-based, human
# conditionInfo: Homo sapiens, 36 to 48 hours

// sample CC[C@H](NC(=O)c1n[nH]c2ccc(-c3cnc(C)n3C)cc12)C(F)(F)F , its EC50 was > 10000 nM

So, O=C(N[C@H]1CC[C@H](CN2CC(F)C2)CC1)c1n[nH]c2ccc(-c3cnn4c3CCCC4)cc12 ? Its EC50 was 677 nM

// field: EC50; key: Cc1ncc(-c2ccc3[nH]nc(C(=O)Nc4ccc(OC5CCN(C)CC5)cc4)c3c2)s1 ; value = 1460 nM

Recorded result, O=C(Nc1ccc(OC(F)F)nc1)c1n[nH]c2ccc(-c3cnn(CCN4CCOCC4)c3)cc12 , EC50: 2130 nM

###

Field: pEC50. Provide a value for each of the compounds that follow.
# Test system: Wnt activity (Sp5-Luc reporter in SW480 cells)
# measurementProtocol: Screening assay for Wnt activity: Sp5-Luc reporter gene assay in SW480 colon carcinoma cells
# Assay type: cell-based, human
# conditionInfo: Homo sapiens, 36 to 48 hours
Keep in mind that pEC50 stands for -log10 of concentration in molar terms.

The compound O=C(Nc1ccc(OC(F)F)cc1)c1n[nH]c2ccc(-c3cnn(C4CCNCC4)c3)cc12 showed pEC50 equal to 6.37

The compound listed as O=C(Nc1ccc(F)cc1)c1n[nH]c2ccc(-c3nnc4n3CCNC4)cc12 shows pEC50 equal to 5.73

pEC50 reading for CN1CCC(n2cc(-c3ccc4[nH]nc(C(=O)Nc5ccc(OC(F)F)nc5)c4c3)cn2)CC1 : 6.36

Record Cc1ncc(-c2cc3c(C(=O)Nc4ccc(OC5CCN(C)CC5)cc4)n[nH]c3cc2F)s1 , field pEC50: 5.82

Memo: Cc1ncc(NC(=O)c2n[nH]c3cc(F)c(-c4cnn(C5CCN(C)CC5)c4)cc23)s1 , reported pEC50: 7.00

# pEC50 (compound: Cn1cc(-c2cc3c(C(=O)Nc4ccc5c(c4)CNC5)n[nH]c3cc2F)cn1 ) is 5.87

For Cn1cc(-c2cc(F)c3[nH]nc(C(=O)NCCC(F)(F)F)c3c2)cn1 the compound record lists pEC50 as 6.49

Entry under test: CN1CCC(Oc2ccc(NC(=O)c3n[nH]c4c(F)cc(-c5cnn(C)c5)cc34)cc2)CC1 . Its pEC50 was 5.84

// field: pEC50; key: O=C(Nc1ccc(N2CCCC2)nc1)c1n[nH]c2ccc(-c3cnn(C4CCNCC4)c3)cc12 ; value = 5.80

Entry under test: O=C(NC1CCC(F)(F)CC1)c1n[nH]c2ccc(-c3cnn(C4CC4)c3)cc12 . Its pEC50 was 5.98

Field pEC50 (entry O=C(Nc1ccc(OC(F)F)cc1)c1n[nH]c2ccc(-c3cnn(C4CCN(CCF)CC4)c3)cc12 ) reads 5.41

pEC50 reading for CC(C)CN1CC[C@@H](NC(=O)c2n[nH]c3ccc(-c4cnn(C)c4)cc23)[C@H](F)C1 : 5.74

The compound identified as CC(C)CNC(=O)c1n[nH]c2ccc(-c3cnn(C)c3)cc12 registered its pEC50 at 6.09

// recorded pEC50 for O=C(Nc1ccc(CN2CCCC2)cc1)c1n[nH]c2ccc(-c3cnn(C4CC4)c3)cc12 : 6.26

Measured pEC50, Cc1ncc(-c2ccc3[nH]nc(C(=O)N[C@H]4CCN(CC(C)C)C[C@@H]4F)c3c2)n1C : 5.99

Record O=C(Nc1ccc(F)cc1)c1n[nH]c2ccc(-c3cnn(C4CCNCC4)c3)cc12 , field pEC50: 6.62

pEC50 reading for O=C(Nc1ccc(OC(F)F)nc1)c1n[nH]c2ccc(-c3cnn(C4CNC4)c3)cc12 : 5.74

Entry Cc1coc(NC(=O)c2n[nH]c3cc(F)c(-c4cnn(C5CCN(C)CC5)c4)cc23)n1 ; pEC50 = 6.90
